Target: Carboxypeptidase G2 (Pseudomonas aeruginosa (strain ATCC 15692 / PAO1 / 1C / PRS 101 / LMG12228)) (UniProt Q9I056)
Sequence (Q9I056 as listed by the source): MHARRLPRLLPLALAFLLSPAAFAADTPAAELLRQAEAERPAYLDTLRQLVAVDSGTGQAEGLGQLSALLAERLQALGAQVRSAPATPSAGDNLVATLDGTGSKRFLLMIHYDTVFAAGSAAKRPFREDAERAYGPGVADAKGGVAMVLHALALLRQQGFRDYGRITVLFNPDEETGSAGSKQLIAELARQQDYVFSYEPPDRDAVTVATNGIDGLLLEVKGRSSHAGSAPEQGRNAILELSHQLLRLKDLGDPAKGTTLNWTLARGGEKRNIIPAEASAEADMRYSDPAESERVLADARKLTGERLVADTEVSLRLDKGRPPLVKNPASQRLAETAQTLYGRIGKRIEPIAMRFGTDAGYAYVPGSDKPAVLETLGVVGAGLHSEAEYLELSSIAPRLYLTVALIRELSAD
Experiment: Ratio of kcat/Km for carboxypeptidase G2 activity
Below, each entry is listed with its recorded Ratio.

| Structure Smiles | Ratio |
| --- | --- |
| O=C(O)CC[C@H](NC(=O)Nc1ccc(N(CCCl)CCCl)c(F)c1)C(=O)O | 3.4 |
| O=C(O)CC[C@H](NC(=O)Nc1ccc(N(CCBr)CCBr)c(F)c1)C(=O)O | 2.7 |
| Cc1cc(N(CCCl)CCCl)ccc1OC(=O)N[C@@H](CCC(=O)O)C(=O)O | 0.6 |
| O=C(O)CC[C@H](NC(=O)Nc1ccc(N(CCCl)CCCl)c(Cl)c1)C(=O)O | 7.8 |
| Cc1cc(OC(=O)N[C@@H](CCC(=O)O)C(=O)O)ccc1N(CCCl)CCCl | 2.3 |
| N#Cc1cc(NC(=O)N[C@@H](CCC(=O)O)C(=O)O)ccc1N(CCCl)CCCl | 1 |
| CC(C)c1cc(OC(=O)N[C@@H](CCC(=O)O)C(=O)O)ccc1N(CCCl)CCCl | 0.2 |
| O=C(O)CC[C@H](NC(=O)Oc1ccc(N(CCI)CCI)cc1)C(=O)O | 14.8 |
| O=C(O)CC[C@H](NC(=O)Oc1ccc(N(CCCl)CCCl)cc1Cl)C(=O)O | 0.7 |

###

Biological target: Carboxypeptidase G2 (Pseudomonas aeruginosa (strain ATCC 15692 / PAO1 / 1C / PRS 101 / LMG12228))
Assay: Ability to act as substrate for Carboxypeptidase G2
Binning scheme for k cat: bin 1 (below 10 s⁻¹), bin 2 (10 s⁻¹ to below 30 s⁻¹), bin 3 (30 s⁻¹ or more)

| Structure Smiles | Assigned Class |
| --- | --- |
| O=C(O)CC[C@H](NC(=O)Nc1ccc(N(CCBr)CCBr)c(F)c1)C(=O)O | bin 2 |
| O=C(O)CC[C@H](NC(=O)Nc1ccc(N(CCCl)CCCl)c(F)c1)C(=O)O | bin 1 |
| CC(C)c1cc(OC(=O)N[C@@H](CCC(=O)O)C(=O)O)ccc1N(CCCl)CCCl | bin 2 |
| O=C(O)CC[C@H](NC(=O)Oc1ccc(N(CCBr)CCBr)cc1)C(=O)O | bin 3 |
| O=C(O)CC[C@H](NC(=O)Nc1ccc(N(CCCl)CCCl)c(Cl)c1)C(=O)O | bin 1 |
| N#Cc1cc(NC(=O)N[C@@H](CCC(=O)O)C(=O)O)ccc1N(CCCl)CCCl | bin 1 |
| Cc1cc(N(CCCl)CCCl)ccc1OC(=O)N[C@@H](CCC(=O)O)C(=O)O | bin 2 |
| O=C(O)CC[C@H](NC(=O)Oc1ccc(N(CCCl)CCCl)cc1Cl)C(=O)O | bin 3 |

###

Experiment: Half life was reported
Format: ADME

| Structure Smiles | Uom | half-life |
| --- | --- | --- |
| N#Cc1cc(NC(=O)N[C@@H](CCC(=O)O)C(=O)O)ccc1N(CCCl)CCCl | min | 61 |
| O=C(O)CC[C@H](NC(=O)Oc1ccc(N(CCCl)CCCl)c(F)c1)C(=O)O | min | 19 |
| Cc1cc(N(CCCl)CCCl)ccc1OC(=O)N[C@@H](CCC(=O)O)C(=O)O | min | 33 |
| CC(C)c1cc(OC(=O)N[C@@H](CCC(=O)O)C(=O)O)ccc1N(CCCl)CCCl | min | 2.2 |
| O=C(O)CC[C@H](NC(=O)Oc1ccc(N(CCCl)CCCl)c(Cl)c1)C(=O)O | min | 1.7 |
| O=C(O)CC[C@H](NC(=O)Oc1ccc(N(CCCl)CCCl)cc1Cl)C(=O)O | min | 186 |
| Cc1cc(OC(=O)N[C@@H](CCC(=O)O)C(=O)O)ccc1N(CCCl)CCCl | min | 1.6 |
| O=C(O)CC[C@H](NC(=O)Nc1ccc(N(CCCl)CCCl)c(Cl)c1)C(=O)O | min | 2.8 |
| O=C(O)CC[C@H](NC(=O)Nc1ccc(N(CCCl)CCCl)c(F)c1)C(=O)O | min | 6.8 |

Hey, just so you know, these numbers are from ChEMBL document CHEMBL1128221.
